Source of measurements: patent EP4781984A1

experiment: Thermodynamic solubility test; type: physicochemical; details: buffer solution, aqueous buffer, thermodynamic from solid; thermodynamic solubility, room temperature, 8 hours shaking; buffers pH 2.0, 6.5, 7.4 used, pH of the tabulated value not given
Just so you know, the groups by solubility at 8 h go like this: class 1 = under 70 µg/mL, class 2 = from 70 µg/mL up to 500 µg/mL, class 3 = 500 µg/mL and over

compound | class_assignment
CCN(CC)Cc1ccc(/C=C/c2n[nH]c3cc(Sc4ccccc4C(=O)NCC(F)(F)F)ccc23)nc1 | class 2
CCN(CC)CCc1ccc(/C=C/c2n[nH]c3cc(Sc4ccc(F)cc4C(=O)NC4CC4)ccc23)nc1 | class 3
CNC(=O)c1ccccc1Sc1ccc2c(/C=C/c3ccc(OCC4CCCN4C)cn3)n[nH]c2c1 (centres unmarked) | class 1
CCNC(=O)c1cc(F)ccc1Sc1ccc2c(/C=C/c3ccc(CN(CC)CC)cn3)n[nH]c2c1 | class 3
CNC(=O)c1ccccc1Sc1ccc2c(/C=C/c3ccc(OCCN4CCCC4)cn3)n[nH]c2c1 | class 2
CCN(CC)Cc1ccc(/C=C/c2n[nH]c3cc(Sc4c(F)cccc4C(=O)NC)ccc23)nc1 | class 3
CNC(=O)c1ccc(F)cc1Sc1ccc2c(/C=C/c3ccc(OCCN4CCCC4)cn3)n[nH]c2c1 | class 1
CNC(=O)c1ccccc1Sc1ccc2c(/C=C/c3ccc(OCC4CCN(C)C4)cn3)n[nH]c2c1 (centres unmarked) | class 1
CNC(=O)c1ccccc1Sc1cnc2c(/C=C/c3ccccn3)n[nH]c2c1 | class 1
O=C(NC1CC1)c1cccc(F)c1Sc1ccc2c(/C=C/c3cnn(CCCN4CCCC4)c3)n[nH]c2c1 | class 3
O=C(NC1CC1)c1ccccc1Nc1ccc2c(/C=C/c3ccc(CN4CCCC4)cn3)n[nH]c2c1 | class 2
CCN(CC)Cc1ccc(/C=C/c2n[nH]c3cc(Sc4ccccc4C(=O)NCC(F)F)ccc23)nc1 | class 2
CNC(=O)c1cc(F)ccc1Sc1ccc2c(/C=C/c3ccc(OCCN4CCCC4)cn3)n[nH]c2c1 | class 1
CNC(=O)c1ccccc1Sc1ccc2c(/C=C/c3cncc(OCCN4CCCC4)c3)n[nH]c2c1 | class 1
CNC(=O)c1ccccc1Sc1ccc2c(/C=C/c3ccn(CCCN4CCCC4)n3)n[nH]c2c1 | class 3
CNC(=O)c1ccccc1Sc1ccc2c(/C=C/c3cc(OCCN4CCCC4)ccn3)n[nH]c2c1 | class 2
CNC(=O)c1ccc(F)cc1Sc1ccc2c(/C=C/c3ccc(CN4CCCC4)cn3)n[nH]c2c1 | class 1
CNC(=O)c1cccc(F)c1Sc1ccc2c(/C=C/c3cnn(CCCN4CCCC4)c3)n[nH]c2c1 | class 3
CCNC(=O)c1cc(F)ccc1Sc1ccc2c(/C=C/c3ccc(CN4CCCC4)cn3)n[nH]c2c1 | class 2
CCN(CC)Cc1ccc(/C=C/c2n[nH]c3cc(Sc4ccc(F)cc4C(=O)NC4CC4)ccc23)nc1 | class 3
CNC(=O)c1ccccc1Sc1ccc2c(/C=C/c3cccc(OCCN4CCCC4)c3)n[nH]c2c1 | class 2
CNC(=O)c1ccccc1Sc1ccc2c(NC(=O)NCCN3CCN(C)CC3)n[nH]c2c1 | class 3
CNC(=O)c1ccccc1Sc1ccc2c(C#Cc3cc(OCCN4CCCC4)ccn3)n[nH]c2c1 | class 3
CNC(=O)c1ccccc1Sc1ccc2c(/C=C/c3cccc(OCCN4CCCC4)n3)n[nH]c2c1 | class 2
CCN(CC)Cc1ccc(/C=C/c2n[nH]c3cc(Sc4ccccc4C(=O)NCCF)ccc23)nc1 | class 2
CNC(=O)c1ccccc1Sc1ccc2c(C#Cc3ccc(OCCN4CCCC4)cn3)n[nH]c2c1 | class 1
CCNC(=O)c1ccccc1Sc1ccc2c(/C=C/c3ccc(CN(CC)CC)cn3)n[nH]c2c1 | class 3
CNC(=O)c1ccccc1Sc1ccc2c(/C=C/c3ccc(OCCN4CCN(C)CC4)cn3)n[nH]c2c1 | class 2
CCN(CC)Cc1ccc(/C=C/c2n[nH]c3cc(Sc4ccccc4C(=O)NC)ccc23)nc1 | class 1
CNC(=O)c1ccccc1Sc1ccc2c(/C=C/c3ccc(OCCN4CCOCC4)cn3)n[nH]c2c1 | class 1
CNC(=O)c1ccccc1Sc1ccc2c(/C=C/c3ccc(OCC4CCNC4)cn3)n[nH]c2c1 (centres unmarked) | class 2
